- Target Of Assay: Human ASK1 (Homo sapiens)
- Construct: expressed in transfected cells; host or cells: HEK293T-AP1
- Sequence (Q99683 whole entry): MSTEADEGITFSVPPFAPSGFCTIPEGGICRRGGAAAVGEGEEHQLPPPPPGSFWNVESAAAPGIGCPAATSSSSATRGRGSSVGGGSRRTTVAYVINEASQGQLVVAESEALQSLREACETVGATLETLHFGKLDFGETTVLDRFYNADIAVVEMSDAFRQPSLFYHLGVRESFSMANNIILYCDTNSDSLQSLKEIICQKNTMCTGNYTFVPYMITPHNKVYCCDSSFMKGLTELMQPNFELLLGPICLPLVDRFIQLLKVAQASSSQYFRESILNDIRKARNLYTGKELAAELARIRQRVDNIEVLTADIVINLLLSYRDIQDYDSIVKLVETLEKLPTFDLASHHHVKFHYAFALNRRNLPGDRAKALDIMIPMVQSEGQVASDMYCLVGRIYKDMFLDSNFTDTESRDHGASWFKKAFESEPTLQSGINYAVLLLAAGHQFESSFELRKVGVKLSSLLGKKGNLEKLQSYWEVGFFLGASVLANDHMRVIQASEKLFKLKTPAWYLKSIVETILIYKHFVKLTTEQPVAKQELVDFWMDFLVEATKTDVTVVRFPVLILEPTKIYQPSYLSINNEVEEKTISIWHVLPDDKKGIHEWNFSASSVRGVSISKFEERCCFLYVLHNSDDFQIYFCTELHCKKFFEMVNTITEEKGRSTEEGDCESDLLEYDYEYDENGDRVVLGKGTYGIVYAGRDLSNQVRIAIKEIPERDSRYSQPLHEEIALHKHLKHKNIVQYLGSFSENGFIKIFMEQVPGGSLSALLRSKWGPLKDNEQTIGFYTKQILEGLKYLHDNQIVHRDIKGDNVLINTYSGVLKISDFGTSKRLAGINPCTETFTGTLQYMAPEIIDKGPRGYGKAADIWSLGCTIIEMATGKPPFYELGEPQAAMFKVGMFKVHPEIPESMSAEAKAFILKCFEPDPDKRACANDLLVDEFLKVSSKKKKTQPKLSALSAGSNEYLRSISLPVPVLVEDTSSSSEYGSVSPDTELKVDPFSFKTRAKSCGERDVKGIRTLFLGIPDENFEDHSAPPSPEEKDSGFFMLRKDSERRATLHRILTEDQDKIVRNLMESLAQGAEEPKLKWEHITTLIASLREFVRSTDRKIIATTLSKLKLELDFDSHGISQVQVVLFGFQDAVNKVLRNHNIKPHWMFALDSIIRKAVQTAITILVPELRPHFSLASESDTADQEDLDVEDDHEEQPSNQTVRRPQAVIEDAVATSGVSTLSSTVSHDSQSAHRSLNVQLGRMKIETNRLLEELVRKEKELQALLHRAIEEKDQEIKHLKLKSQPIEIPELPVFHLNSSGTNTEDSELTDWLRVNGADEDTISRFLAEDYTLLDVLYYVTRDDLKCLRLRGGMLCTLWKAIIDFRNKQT
- Assay Explanation: ASK1 Cell Based Assay (phospho p38 read out in hASK1 transfected HEK293T-AP1 cells)
- Condition Info: HEK293T-AP1 cells, 1 mM hydrogen peroxide, phospho p38; read-out: Cell Based Assay IC50
pIC50: −log10 of the molar value.
Experimental Endpoint: pIC50

Check out these entries, answers already filled in.
- Molecule: "CC(C)n1cnnc1-c1cccc(N2CCN(c3ccc4c(c3)C(C)(C)CS4(=O)=O)C2=O)n1"
  Experimental Endpoint: "pIC50"
  Reported Result: "< 6.00"
- Molecule: "CC(C)n1cnnc1-c1cccc(N2CCN(c3cccc(N4CCOCC4)c3)C2=O)n1"
  Experimental Endpoint: "pIC50"
  Reported Result: "< 6.00"
- Molecule: "CC(C)n1cnnc1-c1cccc(N2CCN(c3ccc(C(O)C4CC4)cc3)C2=O)n1 (stereo not shown)"
  Experimental Endpoint: "pIC50"
  Reported Result: "> 6.00"

Please turn your attention to the following entry.
pIC50 reported for this molecule CC(C)n1cnnc1-c1cccc(N2CCN(c3ccc(N4CC(C(N)=O)C4)cc3)C2=O)n1 : < 7.00
